biological target: rM3Ds (Rattus norvegicus, UniProt P08483, A177S/A238G/A489L/DEL261-437/DEL441-478/E258S/I253V/I483M/INS256[…]/K178L/K182A/K255R/K484R/K486H/L173F/L482A/M480V/R171S/R176Q/R179M/S481M/T174R/T181R/T257A/Y148C); test: cAMP assay (CRE-luciferase reporter) in HEK293T cells expressing rM3Ds; settings: CNO on rM3Ds, HEK293T, 6 h, firefly/renilla luciferase ratio
Sequence (P08483 with tags, fused parts or gaps with the stated changes): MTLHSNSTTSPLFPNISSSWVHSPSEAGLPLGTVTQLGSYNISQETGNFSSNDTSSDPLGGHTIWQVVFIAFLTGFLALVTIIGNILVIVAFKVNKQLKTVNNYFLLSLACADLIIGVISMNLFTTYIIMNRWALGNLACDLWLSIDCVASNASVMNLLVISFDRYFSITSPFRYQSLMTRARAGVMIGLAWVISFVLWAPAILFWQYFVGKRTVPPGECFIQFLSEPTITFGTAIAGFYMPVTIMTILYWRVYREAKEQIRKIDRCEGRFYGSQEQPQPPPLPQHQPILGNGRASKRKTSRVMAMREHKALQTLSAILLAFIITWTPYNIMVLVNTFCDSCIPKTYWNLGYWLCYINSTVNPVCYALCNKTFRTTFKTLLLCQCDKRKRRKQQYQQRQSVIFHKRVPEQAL
REPORTED METRIC: pEC50
pEC50 here: minus log base 10 of the concentration, concentration in moles per litre.

Prompt: Entry C[N+]1([O-])CCN(C2=Nc3cc(Cl)ccc3Nc3ccccc32)CC1 [CNO, clozapine N-oxide] needs its pEC50 filled in; supply it.
Completion: 8.62

Each recorded value in this set is attributed to paper PMC12015759.
